System: Abutilon theophrasti
Assay summary: Post-emergence herbicidal action in greenhouse against ABUTH
Type: in vivo
Protocol conditions: 1,25 g/ha; post-emergence spray, 600 l/ha water; visual rating after ca. 3 weeks vs untreated controls; 100% = plants dead, 0% = like control plants
Measured metric: Nachauflaufwirkung gegen ABUTH (%)
Give bare numbers, in %.

Answered cases to consult:
INSERT INTO results (molecule, system_tested, result_unit, test_result) VALUES
  ('C=CCOC(=O)C(C)(C)OC(=O)c1cc(-n2c(=O)cc(C(F)(F)F)n(N)c2=O)ccc1Cl [I.2-471]', 'Abutilon theophrasti', '%', 90),
  ('CC(C)(OC(=O)c1cc(-n2c(=O)cc(C(F)(F)F)n(N)c2=O)c(F)cc1Cl)C(=O)OCC#N [I.1-176]', 'Abutilon theophrasti', '%', 100),
  ('CC(C)=NOC(=O)C(C)(C)OC(=O)c1cc(-n2c(=O)cc(C(F)(F)F)n(N)c2=O)c(F)cc1Cl [I.1-491]', 'Abutilon theophrasti', '%', 100);

Count: 5. Required value per item: Nachauflaufwirkung gegen ABUTH.
1. CC(C)(OC(=O)c1cc(-n2c(=O)cc(C(F)(F)F)n(N)c2=O)c(F)cc1Cl)C(=O)OCc1ccccn1 [I.1-286]
2. CC(C)(OC(=O)c1cc(-n2c(=O)cc(C(F)(F)F)n(N)c2=O)ccc1Cl)C(=O)OCC#N [I.2-176]
3. COCCOC(=O)C(C)(C)OC(=O)c1cc(-n2c(=O)cc(C(F)(F)F)n(N)c2=O)ccc1Cl [I.2-1]
4. C=CCOC(=O)C(C)(C)OC(=O)c1cc(-n2c(=O)cc(C(F)(F)F)n(N)c2=O)c(F)cc1Cl [I.1-471]
5. CC(C)(OC(=O)c1cc(-n2c(=O)cc(C(F)(F)F)n(N)c2=O)ccc1Cl)C(=O)OCc1ccccn1 [I.2-286]

1. 90
2. 80
3. 90
4. 100
5. 80

Look up and report Nachauflaufwirkung gegen ABUTH, with Abutilon theophrasti as system, for COCCOC(=O)C(C)(C)OC(=O)c1cc(-n2c(=O)cc(C(F)(F)F)n(N)c2=O)c(F)cc1Cl [I.1-1]
90

###

Tested on: Setaria viridis
Assay summary: Post-emergence herbicidal action in greenhouse against SETVI
Format: in vivo
Protocol conditions: 1,25 g/ha, visual rating after ca. 3 weeks
I'd appreciate it if you could supply Nachauflaufwirkung gegen SETVI values for the items below.
Numbers only, in %.

Take a look at these entries with their results.
INSERT INTO assay_data (molecule, system_tested, test_result) VALUES
  ('C=CCOC(=O)C(C)(C)OC(=O)c1cc(-n2c(=O)cc(C(F)(F)F)n(N)c2=O)c(F)cc1Cl', 'Setaria viridis', 100),
  ('COCCOC(=O)C(C)(C)OC(=O)c1cc(-n2c(=O)cc(C(F)(F)F)n(N)c2=O)ccc1Cl', 'Setaria viridis', 100),
  ('CC(C)(OC(=O)c1cc(-n2c(=O)cc(C(F)(F)F)n(N)c2=O)c(F)cc1Cl)C(=O)OCc1ccccn1', 'Setaria viridis', 100),
  ('CC(C)(OC(=O)c1cc(-n2c(=O)cc(C(F)(F)F)n(N)c2=O)ccc1Cl)C(=O)O', 'Setaria viridis', 80),
  ('CC(C)(OC(=O)c1cc(-n2c(=O)cc(C(F)(F)F)n(N)c2=O)c(F)cc1Cl)C(=O)OCC#N', 'Setaria viridis', 100);

Lab note: next compound to report on.
Tell me its Nachauflaufwirkung gegen SETVI given `C=CCOC(=O)C(C)(C)OC(=O)c1cc(-n2c(=O)cc(C(F)(F)F)n(N)c2=O)ccc1Cl` as the entry.
100
